The origin of these recorded values is patent US6972319B1.

Target: T1, PACAP-R3 (human, UniProt P41587 24-438)
T1 sequence (looked up): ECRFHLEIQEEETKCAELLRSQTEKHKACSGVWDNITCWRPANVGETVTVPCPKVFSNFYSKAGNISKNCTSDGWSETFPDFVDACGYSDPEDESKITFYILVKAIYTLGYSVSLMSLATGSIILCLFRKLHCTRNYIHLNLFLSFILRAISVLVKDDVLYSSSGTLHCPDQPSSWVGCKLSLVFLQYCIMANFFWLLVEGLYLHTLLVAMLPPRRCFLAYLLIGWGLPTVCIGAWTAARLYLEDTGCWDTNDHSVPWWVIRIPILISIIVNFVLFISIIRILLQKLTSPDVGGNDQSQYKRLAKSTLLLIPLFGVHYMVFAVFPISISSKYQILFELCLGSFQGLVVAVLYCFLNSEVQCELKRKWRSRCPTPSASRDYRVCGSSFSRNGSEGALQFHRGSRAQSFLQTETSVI
Assay: cell-based or functional assay
No end group written: not given here.
Quantity: R3 Selectivity

>>> measured("HSDAVFTDNYTRLRKQLAVKKYLNSILN [R3P46]")
7

I = HSDAVFTDNYTRLRKQMAAKKYLNSIWNKR [R3P132]
II = HSDAVFTDNYTRLRKQMAWKKYLNSIKNKR [R3P114]
III = HSDAVFTDNYTRLRKQVAAKKYLQSILNKRY [R3P92]
IV = HSDGIFTDSYSRYRKQMAVKKYLAAVKKYLAAVRHG-NH2 [R3P17]
Q: Please put the entries in order of rising R3 Selectivity. Rank them, then answer with their labels in that order.
A: IV, II, I, III
(IV: 2, II: 10, I: 50, III: 100)
